# assay: Pharmacokinetics in plasma and bronchoalveolar lavage fluid of female CD-1 mice
# Format: in vivo
# condition_description: female, CD-1, mouse, plasma; 6.00 h; 150 mg/kg intravenous dripping; read-out: Plasma concentration Mean ± SD
readout_label: concentration at 6 h (µg/mL)
Record the value in µg/mL, omitting the unit from your answer.

Query: Note concentration at 6 h for the compound shown: NC(=O)[C@@H]1CC[C@@H]2CN1C(=O)N2OS(=O)(=O)O [Avibactam]
Result: 0.0578

----------
# assay: Pharmacokinetics in plasma and bronchoalveolar lavage fluid of female CD-1 mice
# Type: in vivo
# condition_description: female, CD-1, mouse, plasma; 0.50 h; group 01 (25 mg/kg per Table 9), intravenous dripping; read-out: Plasma concentration Mean ± SD
readout_label: concentration at 0.5 h (µg/mL)
Record the value in µg/mL, omitting the unit from your answer.

Query: Note concentration at 0.5 h for the compound shown: NC(=O)[C@@H]1CC[C@@H]2CN1C(=O)N2OS(=O)(=O)O
Result: 17.9

----------
# assay: Pharmacokinetics in plasma and bronchoalveolar lavage fluid of female CD-1 mice
# Assay type: in vivo
# condition_description: female, CD-1, mouse, bronchoalveolar lavage fluid (BALF), intravenous; 5.00 h; 150 mg/kg; read-out: BALF concentration Mean ± SD
# Method: An appropriate amount of the test drug was accurately weighed and mixed with the appropriate volume of vehicle (5% DMSO+0.5% Tween 80 in normal saline) to obtain a clear solution for the test in Table 9. The formulation solution for injection was prepared to sterile filtration through a 0.22 μm filter prior to administration. The mice were dosed with the drug within 30 min after the formulated solution for injection was prepared. […]
readout_label: concentration at 5 h (ng/mL)
Record the value in ng/mL, omitting the unit from your answer.

Query: Note concentration at 5 h for the compound shown: NC(=O)[C@@H]1CC[C@@H]2CN1C(=O)N2OS(=O)(=O)O
Result: 19

----------
# assay: Pharmacokinetics in plasma and bronchoalveolar lavage fluid of female CD-1 mice
# Assay type: in vivo
# condition_description: mouse, bronchoalveolar lavage fluid (BALF); female CD-1 mice, intravenous dripping 150 mg/kg, BALF; read-out: T1/2, BALF (converted)
# Experimental: An appropriate amount of the test drug was accurately weighed and mixed with the appropriate volume of vehicle (5% DMSO+0.5% Tween 80 in normal saline) to obtain a clear solution for the test in Table 9. The formulation solution for injection was prepared to sterile filtration through a 0.22 μm filter prior to administration. The mice were dosed with the drug within 30 min after the formulated solution for injection was prepared. […]
readout_label: half-life
State the value with its unit after it.

Query: Note half-life for the molecule shown: CC1(C)[C@H](C(=O)[O][Na+])N2C(=O)C[C@H]2S1(=O)=O [Sulbactam sodium, sulbactam sodium]
Result: 43.5 min
